Target: DDB1-CDK12/Cyclin K ternary complex (Homo sapiens, UniProt Q16531+Q9NYV4)
Construct: expressed in transfected cells; host or cells: HEK293T wildtype cells, transient PEI transfection
Sequence (Q9NYV4 whole entry): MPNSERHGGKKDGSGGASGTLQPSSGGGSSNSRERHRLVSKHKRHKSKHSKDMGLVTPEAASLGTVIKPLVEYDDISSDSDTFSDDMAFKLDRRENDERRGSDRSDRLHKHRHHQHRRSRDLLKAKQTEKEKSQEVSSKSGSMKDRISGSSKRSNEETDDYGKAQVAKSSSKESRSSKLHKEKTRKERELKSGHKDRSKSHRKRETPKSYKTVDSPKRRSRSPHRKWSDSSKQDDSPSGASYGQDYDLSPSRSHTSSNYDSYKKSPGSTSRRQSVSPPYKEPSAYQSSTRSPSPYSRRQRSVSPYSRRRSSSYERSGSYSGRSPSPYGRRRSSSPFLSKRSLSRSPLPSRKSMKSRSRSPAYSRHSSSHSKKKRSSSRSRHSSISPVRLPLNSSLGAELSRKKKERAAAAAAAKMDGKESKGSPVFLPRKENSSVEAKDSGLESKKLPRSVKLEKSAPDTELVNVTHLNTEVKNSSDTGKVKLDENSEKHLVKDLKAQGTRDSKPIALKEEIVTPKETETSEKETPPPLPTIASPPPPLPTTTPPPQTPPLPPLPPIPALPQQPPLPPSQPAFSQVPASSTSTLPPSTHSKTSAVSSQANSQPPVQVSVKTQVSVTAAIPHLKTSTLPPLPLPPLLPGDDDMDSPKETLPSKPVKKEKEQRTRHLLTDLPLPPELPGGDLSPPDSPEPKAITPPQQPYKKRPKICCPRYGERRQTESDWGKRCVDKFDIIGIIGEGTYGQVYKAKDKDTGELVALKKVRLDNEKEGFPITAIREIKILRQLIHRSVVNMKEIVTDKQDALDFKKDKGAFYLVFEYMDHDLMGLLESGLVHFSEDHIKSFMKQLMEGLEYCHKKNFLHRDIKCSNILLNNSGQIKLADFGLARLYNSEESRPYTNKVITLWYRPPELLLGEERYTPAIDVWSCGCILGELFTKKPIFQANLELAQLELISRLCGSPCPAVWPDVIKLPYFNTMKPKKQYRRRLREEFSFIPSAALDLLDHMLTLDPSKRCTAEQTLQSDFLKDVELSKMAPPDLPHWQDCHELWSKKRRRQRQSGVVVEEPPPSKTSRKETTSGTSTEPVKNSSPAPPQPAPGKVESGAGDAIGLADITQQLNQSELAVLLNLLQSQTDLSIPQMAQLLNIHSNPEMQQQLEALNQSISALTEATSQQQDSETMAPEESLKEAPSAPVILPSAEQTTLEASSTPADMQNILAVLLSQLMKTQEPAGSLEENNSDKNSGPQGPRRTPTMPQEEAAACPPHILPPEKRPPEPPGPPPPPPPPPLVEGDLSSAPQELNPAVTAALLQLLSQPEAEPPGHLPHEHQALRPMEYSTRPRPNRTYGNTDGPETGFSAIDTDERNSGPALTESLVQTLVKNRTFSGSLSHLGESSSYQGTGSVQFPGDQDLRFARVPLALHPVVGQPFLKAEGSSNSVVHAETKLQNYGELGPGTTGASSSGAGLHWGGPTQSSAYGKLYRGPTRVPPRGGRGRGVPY
Sequence (Q16531 whole entry): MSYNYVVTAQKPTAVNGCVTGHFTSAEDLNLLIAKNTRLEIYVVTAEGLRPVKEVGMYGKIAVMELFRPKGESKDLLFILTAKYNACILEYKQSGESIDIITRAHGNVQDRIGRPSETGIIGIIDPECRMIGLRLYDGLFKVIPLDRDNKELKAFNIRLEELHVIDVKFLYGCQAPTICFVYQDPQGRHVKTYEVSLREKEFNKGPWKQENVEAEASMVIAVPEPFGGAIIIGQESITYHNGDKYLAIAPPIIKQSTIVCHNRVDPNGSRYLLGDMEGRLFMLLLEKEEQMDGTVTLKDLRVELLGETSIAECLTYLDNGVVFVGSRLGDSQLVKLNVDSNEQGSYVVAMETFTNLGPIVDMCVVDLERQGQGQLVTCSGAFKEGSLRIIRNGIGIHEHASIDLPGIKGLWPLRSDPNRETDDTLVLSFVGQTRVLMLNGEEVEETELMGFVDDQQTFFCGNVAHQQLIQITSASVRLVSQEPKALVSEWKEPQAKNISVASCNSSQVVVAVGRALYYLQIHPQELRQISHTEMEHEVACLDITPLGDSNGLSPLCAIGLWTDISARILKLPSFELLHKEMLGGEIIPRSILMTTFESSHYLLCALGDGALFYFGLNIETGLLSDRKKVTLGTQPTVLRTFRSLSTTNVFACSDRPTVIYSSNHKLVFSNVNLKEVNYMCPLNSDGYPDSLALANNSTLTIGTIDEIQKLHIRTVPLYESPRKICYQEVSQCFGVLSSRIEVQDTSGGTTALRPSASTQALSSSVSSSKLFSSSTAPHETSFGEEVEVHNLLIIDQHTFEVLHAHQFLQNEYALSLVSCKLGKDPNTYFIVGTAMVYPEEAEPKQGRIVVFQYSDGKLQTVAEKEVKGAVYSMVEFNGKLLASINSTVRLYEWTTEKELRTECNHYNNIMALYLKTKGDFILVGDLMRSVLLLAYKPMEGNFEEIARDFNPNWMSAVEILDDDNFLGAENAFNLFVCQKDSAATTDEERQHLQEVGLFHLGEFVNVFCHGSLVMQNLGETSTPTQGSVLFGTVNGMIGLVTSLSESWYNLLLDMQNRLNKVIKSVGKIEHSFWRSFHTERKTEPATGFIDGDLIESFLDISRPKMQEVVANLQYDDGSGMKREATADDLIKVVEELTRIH
Sequence (O75909 whole entry partner): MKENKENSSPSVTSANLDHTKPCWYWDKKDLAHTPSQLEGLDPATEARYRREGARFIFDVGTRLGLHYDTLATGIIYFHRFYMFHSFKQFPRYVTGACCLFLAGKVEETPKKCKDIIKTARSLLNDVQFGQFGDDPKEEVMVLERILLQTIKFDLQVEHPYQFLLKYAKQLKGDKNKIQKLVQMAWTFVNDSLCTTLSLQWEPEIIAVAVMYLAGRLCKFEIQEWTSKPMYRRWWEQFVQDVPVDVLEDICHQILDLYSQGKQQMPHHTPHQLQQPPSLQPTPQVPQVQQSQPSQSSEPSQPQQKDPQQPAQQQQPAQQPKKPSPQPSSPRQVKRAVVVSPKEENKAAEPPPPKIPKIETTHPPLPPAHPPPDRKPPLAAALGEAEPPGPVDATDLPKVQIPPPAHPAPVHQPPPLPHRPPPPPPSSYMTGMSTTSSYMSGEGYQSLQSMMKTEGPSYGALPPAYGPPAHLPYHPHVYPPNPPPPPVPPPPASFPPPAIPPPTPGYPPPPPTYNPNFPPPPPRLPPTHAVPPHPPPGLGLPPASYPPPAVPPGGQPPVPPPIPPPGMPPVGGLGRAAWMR
Test: NanoBRET fold-change assay (HaloTag_CDK12 / NanoLuc_DDB1 in HEK293T)
Format: cell-based
Settings: 10 μM compound, 10 minutes

MOLECULE	NanoBRET fold-change Activity Class
Cc1ccc2c(CC(=O)Nc3cc(Cl)[nH]n3)coc2c1C	B (3-4 fold increase)
O=C(Cc1ccc2cnccc2c1)Nc1ncc(C(F)(F)F)s1	C (2-3 fold increase)
Cc1ccc(CN2CC(C(=O)Nc3ncc(C(F)(F)F)s3)CC2=O)cc1 (stereo not drawn)	B (3-4 fold increase)
O=C(Nc1ncc(C(F)(F)F)s1)C1CC(=O)N(Cc2ccc(Cl)cc2)C1 (stereo not drawn)	B (3-4 fold increase)
O=C(Nc1ncc(C(F)(F)F)s1)C1CC(=O)N(c2cc(F)cc(F)c2)C1 (stereo not drawn)	B (3-4 fold increase)
O=C(Cc1cncc2ccccc12)Nc1ncc(C(F)(F)F)s1	C (2-3 fold increase)
Cc1ccc(N2CC(C(=O)Nc3ncc(C(F)(F)F)s3)CC2=O)cc1 (stereo not drawn)	C (2-3 fold increase)

Value source: patent US20240132485A1
